Target Of Assay: porcine pancreatic elastase (Sus scrofa)
Sequence (P00772 27-266): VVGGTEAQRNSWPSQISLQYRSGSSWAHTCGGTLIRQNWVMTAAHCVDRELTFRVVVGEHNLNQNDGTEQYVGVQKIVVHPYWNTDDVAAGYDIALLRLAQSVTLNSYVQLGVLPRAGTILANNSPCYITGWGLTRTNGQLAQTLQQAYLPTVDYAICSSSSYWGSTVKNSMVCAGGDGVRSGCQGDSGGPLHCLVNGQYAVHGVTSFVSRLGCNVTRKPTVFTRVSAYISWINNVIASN
pIC50: −log10 of the molar value.
Quantity Name: pIC50

>>> experimental_value("O=c1cc(-c2ccc(O)c(O)c2)oc2cc(O)cc(O)c12 [Compound 22, 5,7,3',4'-tetrahydroxyflavone]")
3.86

The reported measurements were obtained from paper PMC9127232.
